- measured_target: T1, P9bH1
- T1 chain: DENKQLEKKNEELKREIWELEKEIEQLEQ
- protocol_notes: two-hybrid library CCNG1;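 also: natural log of median RNA to DNA barcode read ratio; higher means stronger binding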
observed_property: interaction score

Consider the following illustrative entries.
DKNKQLKKKIEELKRKIWELKKENEQLEQ [P12bH1] = -0.294
DKIKQLKKKIEELKRENWELEKENEQLEQ [P4bH1] = -0.46
DENKQLEKKNEELKREIWELEKEIEQLEQ [P9bH1] = -0.482
DEIKQLEKEIEELERKNWELKKKNEQLKQ [P3bH1] = -0.408

(a) DEIKQLEKKNEELKREIWELEKKNEQLKQ [P7bH1]
(b) DEIKQLEKENEELERENWELEKEIEQLEQ [P1bH1]
(c) DKNKQLKKEIEELERENWELEKKIEQLKQ [P6bH1]
Problem: Sort entries by interaction score from minimum to maximum value. Rank them, then answer with their labels in that order.
Result: b, a, c
(b: -0.87, a: -0.3, c: 0.0468)

# credit: paper PMC10397247
